- Condition description: bacteroides intestinalis, 12 h, 2 µM;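 note: parent drug quantified by LC–MS before and after incubation with the bacterium, comparing the two levels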
- Description: The drug is tested on Bacteroides intestinalis strain: DSM17393 for biotransformation. The drug concentrations were measured before and after a 12-h incubation by liquid-chromatography-coupled mass spectrometry (LC–MS)
Readout label: Bacterial Biotransformation

# Molecule, Bacterial Biotransformation
rows = [
    ("O=c1[nH]c2ccccc2n1CCCN1CCC(n2c(=O)[nH]c3cc(Cl)ccc32)CC1 [DOMPERIDONE]", "Compound NOT metabolized"),
    ("CC(=O)OCC(=O)[C@@]1(OC(C)=O)[C@@H](C)C[C@H]2[C@@H]3C[C@H](F)C4=CC(=O)C=C[C@]4(C)[C@@]3(F)[C@@H](O)C[C@@]21C [DIFLORASONE DIACETATE]", "Compound metabolized"),
    ("Nc1nc(N)nc(-c2cc(Cl)ccc2Cl)n1.O=C(O)/C=C\\C(=O)O [IRSOGLADINE MALEATE]", "Compound NOT metabolized"),
    ("COc1ccc2c(c1)c(CC(=O)O)c(C)n2C(=O)c1ccc(Cl)cc1 [INDOMETHACIN]", "Compound metabolized"),
    ("N=C(N)NC(=O)Cc1c(Cl)cccc1Cl [GUANFACINE]", "Compound NOT metabolized"),
]

Recall and state the measured Bacterial Biotransformation for COCCc1ccc(OCC(O)CNC(C)C)cc1.COCCc1ccc(OCC(O)CNC(C)C)cc1.O=C(O)C(O)C(O)C(=O)O (stereo not given) [METOPROLOL TARTRATE] .
Compound NOT metabolized

Input CC(C)(C)NC[C@H](O)COc1ccccc1C1CCCC1.CC(C)(C)NC[C@H](O)COc1ccccc1C1CCCC1.O=S(=O)(O)O [PENBUTOLOL SULFATE] , output reported Bacterial Biotransformation.
Compound NOT metabolized

Please report Bacterial Biotransformation for the following molecule: CC(C)NCC(O)COc1ccc(CCOCC2CC2)cc1 (stereo not given) [BETAXOLOL]
Compound NOT metabolized

Give the measured Bacterial Biotransformation for O=C([O-])C[C@H](O)C[C@H](O)/C=C/c1c(C2CC2)nc2ccccc2c1-c1ccc(F)cc1.O=C([O-])C[C@H](O)C[C@H](O)/C=C/c1c(C2CC2)nc2ccccc2c1-c1ccc(F)cc1.[Ca+2] [PITAVASTATIN CALCIUM]
Compound NOT metabolized

Look up and state reported Bacterial Biotransformation for CC#CCn1c(N2CCC[C@@H](N)C2)nc2c1c(=O)n(Cc1nc(C)c3ccccc3n1)c(=O)n2C [LINAGLIPTIN]
Compound metabolized

Annotate the molecule CN(C)CC(c1ccc(O)cc1)C1(O)CCCCC1.O=C(O)CCC(=O)O (stereo not given) [DESVENLAFAXINE SUCCINATE] with its measured Bacterial Biotransformation.
Compound NOT metabolized

Look up and report measured Bacterial Biotransformation for this entry: CC1=C(CC(=O)O)c2cc(F)ccc2/C1=C\c1ccc([S+](C)[O-])cc1 (stereo not given)
Compound NOT metabolized

Fill in reported Bacterial Biotransformation for this entry: CCN(CC)CCNC(=O)c1cc(Cl)c(N)cc1OC [METOCLOPRAMIDE]
Compound NOT metabolized

Supply measured Bacterial Biotransformation of NS(=O)(=O)c1cc2c(cc1Cl)N=C(CSCc1ccccc1)NS2(=O)=O [BENZTHIAZIDE] in your reply.
Compound NOT metabolized

Check the records and state Bacterial Biotransformation for CC(=O)OCC(=O)[C@@]12N=C(C)O[C@@H]1C[C@H]1[C@@H]3CCC4=CC(=O)C=C[C@]4(C)[C@H]3[C@@H](O)C[C@@]12C [DEFLAZACORT]
Compound metabolized
